Study target: T1, recombinant human CD3 epsilon/gamma heterodimer (human, UniProt P07766 23-126; P09693 23-116)
T1 construct: Recombinant protein in solution (200-50 nM) in the Octet assay; also called hCD3 E/G
T1 sequence (P07766 23-126, chain 1 of 2): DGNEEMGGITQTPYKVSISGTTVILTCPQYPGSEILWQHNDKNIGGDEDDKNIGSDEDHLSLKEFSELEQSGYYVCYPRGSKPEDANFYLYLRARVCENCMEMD
T1 sequence (P09693 23-116, chain 2 of 2): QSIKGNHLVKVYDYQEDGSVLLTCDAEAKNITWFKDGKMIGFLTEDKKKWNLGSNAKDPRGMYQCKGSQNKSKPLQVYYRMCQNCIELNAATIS
Experimental details: Octet BLI, mAb on FAB2G sensor, hCD3 E/G 200-50 nM; R^2 0.98
Readout name: log10(koff) (log10 of the value in s⁻¹)
A value of 2 here means koff of 100 in s⁻¹, since values are log10.

ABL-CD3-60 (antibody, V domains shown, Chimeric hybridoma mAb: human V, CH1, upper hinge; mouse middle hinge, CH2, CH3) VH: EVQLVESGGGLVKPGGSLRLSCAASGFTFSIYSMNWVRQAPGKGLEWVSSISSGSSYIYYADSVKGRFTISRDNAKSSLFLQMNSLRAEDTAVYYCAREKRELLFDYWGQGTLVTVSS VL: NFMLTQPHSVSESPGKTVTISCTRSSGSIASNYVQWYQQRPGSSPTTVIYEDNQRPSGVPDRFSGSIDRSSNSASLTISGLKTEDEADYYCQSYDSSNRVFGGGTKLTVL ... -1.23

// sample ABL-CD3-62 (antibody, V domains shown, Chimeric hybridoma mAb: human V, CH1, upper hinge; mouse middle hinge, CH2, CH3) VH: EVQLVESGGGLVKPGGSLRLSCAASGFTFSSYSMNWVRQAPGKGLEWVSSISRSSGYIFYADSVKGRFTISRDNAKNSLYLQMNSLRAEDTAVYYCVRERVGAGFDYWGQGTLVTVSS VL: NFMLTQPHSVSESPGKTVAISCTRSSGSIASNYVQWYQQRPGSSPTAVIYEDNQRPSGVPDRFSGSIDSSSNSAFLTISGLKTEDEADYYCQSYDSSNRVFGGGTKLTVL , its log10(koff) was -2.41

// sample ABL-CD3-43 (antibody, V domains shown, Chimeric hybridoma mAb: human V, CH1, upper hinge; mouse middle hinge, CH2, CH3) VH: EVQLVQSGAEVKKPGESLKISCKGSEYSFTTYWIAWVRQMPGKGLEWMGIIYPGDSDTTYSPSFQGQVTISADKSISIAFLQWSSLKASDTAMYYCARQGELDAFDIWGQGTMVTVSS VL: QSALTQPASVSGSPGQSITISCTGTSSDVGSYNLVSWYQQHPGKAPKLMIYEDIRRPSGVSNRFSASKSGDTASLTISGLQAEDEADYYCCSYAGSTTFAIFGGGTKLTVL , its log10(koff) was -2.98

// sample ABL-CD3-38 (antibody, V domains shown, Chimeric hybridoma mAb: human V, CH1, upper hinge; mouse middle hinge, CH2, CH3) VH: QGQLQQWGAGLLKPSETLSLTCAVYGGSFSGYYWSWIRLPPGKGLEWIGEINHSGNTNYNPSLKSRVTISVDTSKNQFSLQLSSVTAADTAVYYCAKEVEIWGYFDYWGQGTLVTVSS VL: QSVLTQPPSVSGAPGQRVTISCTGSSSNIGAGYDVHWYQQLPGTAPKLLIYGNSNRPSGVPDRFSGSKSGTSASLAITGLQAEDETDYNCQSYDSSLSGYVFGTGTKVTVL , its log10(koff) was -3.48

// sample ABL-CD3-34 (antibody, V domains shown, Chimeric hybridoma mAb: human V, CH1, upper hinge; mouse middle hinge, CH2, CH3) VH: EVHLVESGGGLVKPGGSLRLSCAASGFTFSRYSMNWVRQAPGKGLEWVSSISRSSSYIYYADSVKGRFTISRDNAKNSLYLQMNSLRAEDTAVYYCAREPRTLGMDYWGQGILVTVSS VL: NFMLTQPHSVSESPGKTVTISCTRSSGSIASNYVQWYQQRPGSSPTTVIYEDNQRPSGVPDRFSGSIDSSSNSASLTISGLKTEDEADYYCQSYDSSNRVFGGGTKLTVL , its log10(koff) was -2.71
